Molecular target: UniProt P15559
Sequence (P15559 whole entry): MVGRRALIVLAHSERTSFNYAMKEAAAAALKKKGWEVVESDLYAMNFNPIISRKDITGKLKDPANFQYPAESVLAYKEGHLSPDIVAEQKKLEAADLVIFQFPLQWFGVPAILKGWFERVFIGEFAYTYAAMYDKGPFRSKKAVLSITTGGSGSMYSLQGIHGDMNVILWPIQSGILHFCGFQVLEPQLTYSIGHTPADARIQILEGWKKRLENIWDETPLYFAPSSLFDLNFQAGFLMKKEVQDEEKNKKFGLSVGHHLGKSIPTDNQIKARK
Assay: Substrate activity at recombinant human NQO1 assessed as enzymatic reduction rate at 10 uM

Compound: Cc1cc2c(cc1C)-c1oc(CN3CCC(N4CCN(C)CC4)CC3)c(C)c1C(=O)C2=O
Activity / µmol/min: 904
//
Compound: CCN1CCN(Cc2oc3c(c2C)C(=O)C(=O)c2cc(C)c(C)cc2-3)CC1
Activity / µmol/min: 1200
//
Compound: Cc1cc2c(cc1C)-c1oc(CN3CCC(N4CCCCC4)CC3)c(C)c1C(=O)C2=O
Activity / µmol/min: 795
//
Compound: Cc1cc2c(cc1C)-c1oc(CN3CCOCC3)c(C)c1C(=O)C2=O
Activity / µmol/min: 996
//
Compound: Cc1cc2c(cc1C)-c1oc(CN3CCN4CCCCC4C3)c(C)c1C(=O)C2=O (stereo not given)
Activity / µmol/min: 1030
//
Compound: Cc1cc2c(cc1C)-c1oc(CN3CCN(C)CC3)c(C)c1C(=O)C2=O
Activity / µmol/min: 1260
//
Compound: Cc1cc2c(cc1C)-c1oc(CN3CCN(S(C)(=O)=O)CC3)c(C)c1C(=O)C2=O
Activity / µmol/min: 871
//
Compound: Cc1cc2c(cc1C)-c1oc(CN3CCN4CCCC4C3)c(C)c1C(=O)C2=O (stereo not given)
Activity / µmol/min: 1070
//
Compound: Cc1cc2c(cc1C)-c1oc(CN3CCCCC3)c(C)c1C(=O)C2=O
Activity / µmol/min: 768
//
Compound: Cc1cc2c(cc1C)-c1oc(CN3CCN(CCO)CC3)c(C)c1C(=O)C2=O
Activity / µmol/min: 1160
//
Compound: Cc1cc2c(cc1C)-c1oc(CN(C)C)c(C)c1C(=O)C2=O
Activity / µmol/min: 704
//
Compound: Cc1cc2c(cc1C)-c1oc(CN3CCC(N4CCCC4)CC3)c(C)c1C(=O)C2=O
Activity / µmol/min: 848
//
Compound: Cc1cc2c(cc1C)-c1oc(CN3CCC(N4CCOCC4)CC3)c(C)c1C(=O)C2=O
Activity / µmol/min: 951
//
Compound: Cc1cc2c(cc1C)-c1occ(C)c1C(=O)C2=O
Activity / µmol/min: 690
//
Compound: Cc1cc2c(cc1C)-c1oc(CN3CCN(C4CC4)CC3)c(C)c1C(=O)C2=O
Activity / µmol/min: 1100

---

Known logD of a selection of compounds
Assay: Lipophilicity, logD of the compound at pH 7.4 by potentiometric titration method
Assay type: physicochemical
Conditions: buffer
Parameter: logD

Smiles string: Cc1cc2c(cc1C)-c1oc(CN3CCN(C)CC3)c(C)c1C(=O)C2=O
Value measured: 1.97
--
Smiles string: Cc1cc2c(cc1C)-c1oc(CN3CCN(CCO)CC3)c(C)c1C(=O)C2=O
Value measured: 2.01
--
Smiles string: CCN1CCN(Cc2oc3c(c2C)C(=O)C(=O)c2cc(C)c(C)cc2-3)CC1
Value measured: 1.99
